Every entry's value here was drawn from BigSolDB 2.1.

Details: in 2-butanone, 323.15 K
Reported Property: solubility (mole fraction)

[[record]]
smiles_text = "C#C[C@]1(O)C=C[C@H]2[C@@H]3CCC4=CC(=O)CC[C@@H]4[C@H]3CC[C@@]21CC"
numeric_value = 0.0352


* * *

Conditions: in ethyl acetate, 303.15 K
Reported Property: solubility (mole fraction)

[[record]]
smiles_text = "C#C[C@]1(O)C=C[C@H]2[C@@H]3CCC4=CC(=O)CC[C@@H]4[C@H]3CC[C@@]21CC"
numeric_value = 0.0211


* * *

Details: in methanol, 303.15 K
Reported Property: solubility (mole fraction)

[[record]]
smiles_text = "C#C[C@]1(O)C=C[C@H]2[C@@H]3CCC4=CC(=O)CC[C@@H]4[C@H]3CC[C@@]21CC"
reported_property = "solubility (mole fraction)"
numeric_value = 0.00917


* * *

Details: in ethanol, 323.15 K
Reported Property: solubility (mole fraction)

[[record]]
smiles_text = "C#C[C@]1(O)C=C[C@H]2[C@@H]3CCC4=CC(=O)CC[C@@H]4[C@H]3CC[C@@]21CC"
numeric_value = 0.0147


* * *

Conditions: in acetonitrile, 303.15 K
Reported Property: solubility (mole fraction)

[[record]]
smiles_text = "C#C[C@]1(O)C=C[C@H]2[C@@H]3CCC4=CC(=O)CC[C@@H]4[C@H]3CC[C@@]21CC"
numeric_value = 0.00487


* * *

Conditions: in acetonitrile, 288.15 K
Reported Property: solubility (mole fraction)

[[record]]
smiles_text = "C#C[C@]1(O)C=C[C@H]2[C@@H]3CCC4=CC(=O)CC[C@@H]4[C@H]3CC[C@@]21CC"
numeric_value = 0.00306


* * *

Conditions: in 2-butanone, 298.15 K
Reported Property: solubility (mole fraction)

[[record]]
smiles_text = "C#C[C@]1(O)C=C[C@H]2[C@@H]3CCC4=CC(=O)CC[C@@H]4[C@H]3CC[C@@]21CC"
result = 0.0159


* * *

Settings: in 2-butanone, 283.15 K
Reported Property: solubility (mole fraction)

[[record]]
smiles_text = "C#C[C@]1(O)C=C[C@H]2[C@@H]3CCC4=CC(=O)CC[C@@H]4[C@H]3CC[C@@]21CC"
numeric_value = 0.00956


* * *

Conditions: in acetonitrile, 298.15 K
Reported Property: solubility (mole fraction)

[[record]]
smiles_text = "C#C[C@]1(O)C=C[C@H]2[C@@H]3CCC4=CC(=O)CC[C@@H]4[C@H]3CC[C@@]21CC"
reported_property = "solubility (mole fraction)"
result = 0.00418


* * *

Details: in water, 318.15 K
Reported Property: solubility (mole fraction)

[[record]]
smiles_text = "C#C[C@]1(O)C=C[C@H]2[C@@H]3CCC4=CC(=O)CC[C@@H]4[C@H]3CC[C@@]21CC"
numeric_value = "1.87e-05"


* * *

Details: in ethyl acetate, 298.15 K
Reported Property: solubility (mole fraction)

[[record]]
smiles_text = "C#C[C@]1(O)C=C[C@H]2[C@@H]3CCC4=CC(=O)CC[C@@H]4[C@H]3CC[C@@]21CC"
reported_property = "solubility (mole fraction)"
result = 0.0194


* * *

Settings: in 2-butanone, 293.15 K
Reported Property: solubility (mole fraction)

[[record]]
smiles_text = "C#C[C@]1(O)C=C[C@H]2[C@@H]3CCC4=CC(=O)CC[C@@H]4[C@H]3CC[C@@]21CC"
numeric_value = 0.0134


* * *

Details: in water, 323.15 K
Reported Property: solubility (mole fraction)

[[record]]
smiles_text = "C#C[C@]1(O)C=C[C@H]2[C@@H]3CCC4=CC(=O)CC[C@@H]4[C@H]3CC[C@@]21CC"
reported_property = "solubility (mole fraction)"
numeric_value = "2.16e-05"


* * *

Details: in acetonitrile, 318.15 K
Reported Property: solubility (mole fraction)

[[record]]
smiles_text = "C#C[C@]1(O)C=C[C@H]2[C@@H]3CCC4=CC(=O)CC[C@@H]4[C@H]3CC[C@@]21CC"
reported_property = "solubility (mole fraction)"
numeric_value = 0.00754


* * *

Settings: in ethyl acetate, 308.15 K
Reported Property: solubility (mole fraction)

[[record]]
smiles_text = "C#C[C@]1(O)C=C[C@H]2[C@@H]3CCC4=CC(=O)CC[C@@H]4[C@H]3CC[C@@]21CC"
reported_property = "solubility (mole fraction)"
numeric_value = 0.0228


* * *

Conditions: in water, 283.15 K
Reported Property: solubility (mole fraction)

[[record]]
smiles_text = "C#C[C@]1(O)C=C[C@H]2[C@@H]3CCC4=CC(=O)CC[C@@H]4[C@H]3CC[C@@]21CC"
numeric_value = "6.83e-06"


* * *

Conditions: in n-propanol, 293.15 K
Reported Property: solubility (mole fraction)

[[record]]
smiles_text = "C#C[C@]1(O)C=C[C@H]2[C@@H]3CCC4=CC(=O)CC[C@@H]4[C@H]3CC[C@@]21CC"
numeric_value = 0.0056


* * *

Settings: in methanol, 318.15 K
Reported Property: solubility (mole fraction)

[[record]]
smiles_text = "C#C[C@]1(O)C=C[C@H]2[C@@H]3CCC4=CC(=O)CC[C@@H]4[C@H]3CC[C@@]21CC"
numeric_value = 0.0145


* * *

Conditions: in n-propanol, 288.15 K
Reported Property: solubility (mole fraction)

[[record]]
smiles_text = "C#C[C@]1(O)C=C[C@H]2[C@@H]3CCC4=CC(=O)CC[C@@H]4[C@H]3CC[C@@]21CC"
reported_property = "solubility (mole fraction)"
numeric_value = 0.00461


* * *

Conditions: in isopropyl acetate, 298.15 K
Reported Property: solubility (mole fraction)

[[record]]
smiles_text = "C#C[C@]1(O)C=C[C@H]2[C@@H]3CCC4=CC(=O)CC[C@@H]4[C@H]3CC[C@@]21CC"
numeric_value = 0.031


* * *

Details: in isopropanol, 283.15 K
Reported Property: solubility (mole fraction)

[[record]]
smiles_text = "C#C[C@]1(O)C=C[C@H]2[C@@H]3CCC4=CC(=O)CC[C@@H]4[C@H]3CC[C@@]21CC"
numeric_value = 0.00155


* * *

Conditions: in 2-butanone, 318.15 K
Reported Property: solubility (mole fraction)

[[record]]
smiles_text = "C#C[C@]1(O)C=C[C@H]2[C@@H]3CCC4=CC(=O)CC[C@@H]4[C@H]3CC[C@@]21CC"
reported_property = "solubility (mole fraction)"
numeric_value = 0.0302


* * *

Conditions: in n-butanol, 323.15 K
Reported Property: solubility (mole fraction)

[[record]]
smiles_text = "C#C[C@]1(O)C=C[C@H]2[C@@H]3CCC4=CC(=O)CC[C@@H]4[C@H]3CC[C@@]21CC"
numeric_value = 0.0136


* * *

Details: in isopropanol, 308.15 K
Reported Property: solubility (mole fraction)

[[record]]
smiles_text = "C#C[C@]1(O)C=C[C@H]2[C@@H]3CCC4=CC(=O)CC[C@@H]4[C@H]3CC[C@@]21CC"
reported_property = "solubility (mole fraction)"
result = 0.00519


* * *

Conditions: in ethyl acetate, 318.15 K
Reported Property: solubility (mole fraction)

[[record]]
smiles_text = "C#C[C@]1(O)C=C[C@H]2[C@@H]3CCC4=CC(=O)CC[C@@H]4[C@H]3CC[C@@]21CC"
numeric_value = 0.0264


* * *

Details: in isopropyl acetate, 323.15 K
Reported Property: solubility (mole fraction)

[[record]]
smiles_text = "C#C[C@]1(O)C=C[C@H]2[C@@H]3CCC4=CC(=O)CC[C@@H]4[C@H]3CC[C@@]21CC"
reported_property = "solubility (mole fraction)"
numeric_value = 0.0711


* * *

Settings: in ethanol, 308.15 K
Reported Property: solubility (mole fraction)

[[record]]
smiles_text = "C#C[C@]1(O)C=C[C@H]2[C@@H]3CCC4=CC(=O)CC[C@@H]4[C@H]3CC[C@@]21CC"
reported_property = "solubility (mole fraction)"
numeric_value = 0.0085


* * *

Details: in water, 293.15 K
Reported Property: solubility (mole fraction)

[[record]]
smiles_text = "C#C[C@]1(O)C=C[C@H]2[C@@H]3CCC4=CC(=O)CC[C@@H]4[C@H]3CC[C@@]21CC"
reported_property = "solubility (mole fraction)"
numeric_value = "8.93e-06"


* * *

Details: in acetone, 303.15 K
Reported Property: solubility (mole fraction)

[[record]]
smiles_text = "C#C[C@]1(O)C=C[C@H]2[C@@H]3CCC4=CC(=O)CC[C@@H]4[C@H]3CC[C@@]21CC"
result = 0.0113


* * *

Details: in n-propanol, 298.15 K
Reported Property: solubility (mole fraction)

[[record]]
smiles_text = "C#C[C@]1(O)C=C[C@H]2[C@@H]3CCC4=CC(=O)CC[C@@H]4[C@H]3CC[C@@]21CC"
numeric_value = 0.00678


* * *

Conditions: in n-butanol, 313.15 K
Reported Property: solubility (mole fraction)

[[record]]
smiles_text = "C#C[C@]1(O)C=C[C@H]2[C@@H]3CCC4=CC(=O)CC[C@@H]4[C@H]3CC[C@@]21CC"
numeric_value = 0.0102


* * *

Conditions: in acetone, 293.15 K
Reported Property: solubility (mole fraction)

[[record]]
smiles_text = "C#C[C@]1(O)C=C[C@H]2[C@@H]3CCC4=CC(=O)CC[C@@H]4[C@H]3CC[C@@]21CC"
result = 0.00654

